Each entry below carries its recorded IC50.
Test system: LFA-1 dependent aggregation of JY cells
Test: JY cell homotypic aggregation assay (PMA-stimulated)
Assay type: cell-based, human
Respond with a number, then the unit of measure.

| Compound | IC50 |
| --- | --- |
| C[C@]1(Cc2ccc(C(=O)c3ccccc3)cc2)NC(=O)N(c2cc(Cl)cc(Cl)c2)C1=O [Example 184] | 0.3 µM |

Next, consider the following compound.
Please indicate IC50 recorded for C[C@]1(Cc2ccc(C(=O)c3ccccc3)cc2)NC(=O)N(c2cc(Cl)cc(Cl)c2)C1=O [Example 215]
3.1 µM

----------
Tested on: SKW3 cells
Each entry below carries its recorded Cellular Toxicity Assay MTT LD50.

Some solved cases for reference:
| Molecule | Result |
| --- | --- |
| C[C@@]1(Cc2ccc(Br)cc2)C(=O)N(c2cc(Cl)cc(Cl)c2)C(=O)N1Cc1cccc(C(=N)N)c1 [Example 243] | 10 to 20 µM |
| C[C@@]1(Cc2ccc(Br)cc2)C(=O)N(c2cc(Cl)cc(Cl)c2)C(=O)N1C1CCN(CC(=O)O)CC1 [Example 237] | 50 to 100 µM |
| CC1(Cc2ccc(O)cc2)NC(=O)N(c2cc(Cl)cc(Cl)c2)C1=O (centres unmarked) [Example 9] | 250 to 500 µM |
| CC(=O)OCCN1C(=O)N(c2cc(Cl)cc(Cl)c2)C(=O)[C@@]1(C)Cc1ccc(Br)cc1 [Example 260] | 200 to 400 µM |
| C[C@@]1(Cc2ccc(Br)cc2)C(=O)N(c2cc(Cl)cc(Cl)c2)C(=O)N1CCCCCCl [Example 121] | <11 µM |
| CCCN1C(=O)N(c2cc(Cl)cc(Cl)c2)C(=O)C1(C)Cc1ccc(Br)cc1 (centres unmarked) [Example 137] | 200 to 400 µM |

Tell me its Cellular Toxicity Assay MTT LD50 on SKW3 cells: C[C@@]1(Cc2ccc(Br)cc2)C(=O)N(c2cc(Cl)cc(Cl)c2)C(=O)N1CCCCNC(=N)N [Example 263]
20 to 40 µM

Tell me its Cellular Toxicity Assay MTT LD50 on SKW3 cells: O=C1NC(Cc2ccccc2)C(=O)N1c1cc(Cl)cc(Cl)c1 (centres unmarked) [Example 20]
125 to 250 µM

Values were extracted from patent USRE38132E1.
